Would you mind telling me the reported folding stability dG unfold of each entry?
# experiment description: folding stability dG unfold from chymotrypsin proteolysis; higher = more stable
Numbers only here, please. The scale is kcal/mol.

// SAGGSAGGSLHPSQPLLVTVEVEVDPETGTVRLRVSVWVPGPRERLLERELEVPLHSLPEGALSAGGSAGGS [r12_145_TrMRF] : folding stability dG unfold value = 2.49

// SAGGSAGGSAGGKKTITVPVKIEEVDGKFRITLPDGKVIEFPPGAKVEEKDGLLTIELESAGGSAGGSAGGS [r10_305_TrROS_Hall] : folding stability dG unfold value = 1.13

// SAGNKIEIEPVNYEPMPNGYYRVTARVTIENPNNKKPWDIDVEAYYPMDPNGQPMNVDEIAKEAIKKIFSAG [r5_604_TrROS] : folding stability dG unfold value = 1.36

// SAGGSAGGMVIEFPKEKVEEVKKELLDAGKPDWVIVTDPNDPDIIKIMPKSLAEEKGWKYTPLLSAGGSAGG [r6_710_JUSTAS] : folding stability dG unfold value = 2.06

---

# experiment description: folding stability dG unfold (combined trypsin and chymotrypsin); higher = more stable
measurement name: folding stability dG unfold (kcal/mol)
Numbers only here, please. The scale is kcal/mol.

// SAGGSKIRIVEIQPSNGFTIKIRPKNGKKMTIPIPPDDMNDPENWERFARTLAKWFEKNGVKDIEISAGGSA [r2_249_TrROS] : folding stability dG unfold value = 0.538

// SAGGSAGGSAGGLEIEFWFFFPDEGYMIEVEWERDPDGPIEPTKITEIHPMPDGQPNPGFSAGGSAGGSAGG [r11_750_TrROS] : folding stability dG unfold value = 1.94

// SAGGSEIRVEYDPSTGELRVLIVLPDGSVILKTVRVEPIDPGIAPDGSPIGAAVSISVEIVPPGELSAGGSA [r2_195_TrMRF] : folding stability dG unfold value = 3.39

// SAGGKIKIVLSAEELEKKFGKSIEELAAELAKKLFPNKKVKVKKVKIEKDENGKEKLYVEVEIEPEKPSAGG [r13_723_TrROS_Hall] : folding stability dG unfold value = 3.11

// SAGMVVVKVTLPGPEEALRAAAAAVPVPVSIERDPEKPDVWTATITFPSPELAPVFVEAFAALGAEVVGSAG [r14_745_JUSTAS] : folding stability dG unfold value = 1.69

// SAGGSAGGSAMPGKTYRVRIRLYNEETGELVEERELEVETLDELKEAAEKEGWKIVEIEVESAGGSAGGSAG [r3_423_TrROS_Hall] : folding stability dG unfold value = 3.36

// SAGGMITLTTKTELIGSYRVTYSVTVDPVDDSVVTSTHVTVTPLPPPPPPLPPVPPENPVLPSPRLESAGGS [r8_234_JUSTAS] : folding stability dG unfold value = 0.608

---

# experiment description: folding stability dG unfold from trypsin proteolysis; higher = more stable
Would you mind telling me the reported folding stability dG unfold of each entry?
Numbers only here, please. The scale is kcal/mol.

// SAGGSAGGKPKVVELELTTEDGSKVRVVFTEDSVYIYNEETGLLVKYNLKTGKFELKEVYPLEESAGGSAGG [r6_462_TrROS_Hall] : folding stability dG unfold value = 2.15

// SAGGSAGGKKVYPIPGATPNQFRELLDENKGTLKIYMPNGKQEEFPIKPGMEPIPGGPAWIERKSAGGSAGG [r6_304_TrROS] : folding stability dG unfold value = -0.834

// SAGSSLNILLELETPEEAEKEAARIKEEIPKKGISVTVTIVSKEELEKLLKENVIELPNGSLKLVLFPSAGG [r19_187_JUSTAS] : folding stability dG unfold value = 0.201

// SAMKIEIIEEKEGEIIIKIEATKEEVEELAEELKKKFPGVEVEVEYDKETKKVYIRIKFKKKPSEEELKSAG [r14_600_TrROS_Hall] : folding stability dG unfold value = 3.05

// SAKFRVTEIHPNGNNFEIRIERYDPNGEKKKLPIPVNADNMQIDEVDGDKITIYFPNNGREITLPLEDLSAG [r14_947_TrROS] : folding stability dG unfold value = -0.594

// SAYYIIIKIENPNDGKPFIIMIPGNNIHIFDPDNGKPVEIEVDGDKIEIKFNNRPVTVKPLEVIPPEAISAG [r14_208_TrROS] : folding stability dG unfold value = 1.54

// SAGKKKFITIVIPIEKKEKLKKAVEELKKKFNAKELAVIPNPEKNEIIEVVVKETKDAIIKIVIIAKESAGG [r19_262_TrMRF] : folding stability dG unfold value = 1.68

// SAIRIEEITIDPEYGVITITFDYPMPPGAEKIKFKIFIDGFKIKEIEYEVDPENGWVRMTLTIRIPKDASAG [r14_244_TrROS] : folding stability dG unfold value = 4.09

// SAGGSAGGSAGNIILPFEIESIDIEEETAIDPETGEPVKVKKILIRLKGTGKIIEISFTEKSAGGSAGGSAG [r3_424_TrMRF] : folding stability dG unfold value = 2.76

// SAGGSGTESKEYPDSKVTVTPVPLPLGDGAPVLRVTTVPKLPNGEPVTTVTLVDPDSDVVVTEETLSAGGSA [r2_484_JUSTAS] : folding stability dG unfold value = -0.0208

// SAGGSAGGSAGGSGPSVVLVSLPDGSYIAFPSGADVNIEIPSSSSGARIVAVIPLSELSSAGGSAGGSAGGS [r4_122_TrMRF] : folding stability dG unfold value = 0.111

// SAGGSASPAVSSEEEVEALVEELRKKGYEVLSVERTEIPGEDVTDYTIPIRDPSNGKLSTLTLTAGSAGGSA [r15_123_JUSTAS] : folding stability dG unfold value = 0.508

// SAGGSAGGSAGGMTLEELKKAIENAKPGETIEIEINGETYRITIIEKDGKLIIKIEKLPPSAGGSAGGSAGG [r7_448_TrROS_Hall] : folding stability dG unfold value = 4.36

// SAGGSAGGMVYKIRDKETGKVYEVTIDEETNEITVYDVKTGKPVKTVNMTIEELKEAGYEVEPVSAGGSAGG [r6_831_TrROS_Hall] : folding stability dG unfold value = 3.61

---

# experiment description: folding stability dG unfold (combined trypsin and chymotrypsin); higher = more stable
Decide by folding stability dG unfold: equal to or exceeding 3 kcal/mol means Yes, less means No.

Task: Does the reported folding stability dG unfold for SAGGSAGGSADKIEIRVKLKIPNTDEILTFPIWVDPENPEEVAKAIAAWLEKNGYEIESFEGSAGGSAGGSA [r18_3_TrMRF] fall at or above the 3 kcal/mol mark?
Output: Yes

Task: Does the reported folding stability dG unfold for SSPEEMAEKLAKELNFDKIEIKTEKLDLPSGPSEATVATAKLYNPATGKEYVVKILKFPDGSYEIVIEKKSA [r9_724_JUSTAS] fall at or above the 3 kcal/mol mark?
Output: No

Task: Does the reported folding stability dG unfold for SAGVLTIEVQMPADDAEEFAEEVADTIARRLGFPPGFKIKVKVDRFDPDNGYVRVEATIEFPLPPNQPPSAG [r5_537_TrROS] fall at or above the 3 kcal/mol mark?
Output: No

Task: Does the reported folding stability dG unfold for SAGGSAGGSAGGSGFILKESPDSVLSYDAITGETKKVPSKDVVLEYDPNNGVYTLTVSKSAGGSAGGSAGGS [r4_127_JUSTAS] fall at or above the 3 kcal/mol mark?
Output: No

Task: Does the reported folding stability dG unfold for SAGGSAGGSTIRIRVKTREEAERLAKLIPGARITYDEETKEFYLEIRLPPAPPPSLEELKAALSAGGSAGGS [r20_191_TrROS_Hall] fall at or above the 3 kcal/mol mark?
Output: No

Task: Does the reported folding stability dG unfold for SAGGEKVKRVLVRDKKTKEWREVEVKEAKVEPPPVITIKIELSEEEAKKLAELLRKLFPDAKVTVVKSAGGS [r8_437_TrROS_Hall] fall at or above the 3 kcal/mol mark?
Output: Yes

Task: Does the reported folding stability dG unfold for SAGGSAGGSAYKLKDITMRRMPNGYHEVEIKVDNGKKIDVTIPPDNPGRSIEEFAKEVLDNSAGGSAGGSAG [r3_368_TrROS] fall at or above the 3 kcal/mol mark?
Output: No

Task: Does the reported folding stability dG unfold for SAGMARIIPNPPVIEVVRKDGSKLVIPPEEIEELRAALEAKGGPYTPEEIAEAIRKLFPDYEVSIVPASAGG [r19_46_TrMRF] fall at or above the 3 kcal/mol mark?
Output: No

Task: Does the reported folding stability dG unfold for SAGGSAGGSMELDEDGRLIVRIKVRDKETKEWKEIEIELPGLTEEEIRKLAEELGAEEIEILPSAGGSAGGS [r12_792_TrROS_Hall] fall at or above the 3 kcal/mol mark?
Output: No

Task: Does the reported folding stability dG unfold for SAGKTITVTSTHPDGRTATVTYTTLPDGSFKITSFTWEPWPDGTVTAKITTPDGTVITVNSIDDILKALSAG [r5_618_TrMRF] fall at or above the 3 kcal/mol mark?
Output: Yes

Task: Does the reported folding stability dG unfold for MPDISRAEIKALAEKLGLPVPDGTITIKFTYGDKTITVPVDAKKDITLGDIVEAIKKKNPNIKKIEIVAEPS [r1_135_TrMRF] fall at or above the 3 kcal/mol mark?
Output: No

Task: Does the reported folding stability dG unfold for SAGGPGKYRVIFYPKDTDKPIEADVPASHIKKFDPKNNFIEISAPPGPTLTIPDPDKVKKVIIEPIPSAGGS [r8_111_TrMRF] fall at or above the 3 kcal/mol mark?
Output: No

Task: Does the reported folding stability dG unfold for SAKKITLTPPNGKKITITVHPDGSITITYEKGKITLPGHPGAKIKKATVDPKKGYITIIVNDKPIVIPISAG [r14_276_TrMRF] fall at or above the 3 kcal/mol mark?
Output: No
